FYI, the data here is from paper PMC11129182.

study_system: PARK7 (Homo sapiens, UniProt Q99497)
measurement_protocol: Hit validation and pure-compound testing in the PARK7 FP assay with JYQ-107
Format: biochemical
setup_conditions: crude compounds, 0.5 µM; read-out: % Inhibition 0.5 µM
Use 80% as the dividing line for inhibition at 0.5 µM, with the line itself on the 1 side and lower values as -1.

INSERT INTO results (compound, study_system, class_label) VALUES
  ('N#CN1CC[C@@H](C(=O)Nc2nc3c(s2)CN(C(=O)c2cccc(S(=O)(=O)NC4CC4)c2)CC3)C1 [Compound 59]', 'PARK7 (Homo sapiens, UniProt Q99497)', 1),
  ('N#CN1CC[C@@H](C(=O)Nc2nc3c(s2)CN(C(=O)c2csc(C4CC4)n2)CC3)C1 [Compound 152]', 'PARK7 (Homo sapiens, UniProt Q99497)', -1),
  ('N#CN1CC[C@@H](C(=O)Nc2nc3c(s2)CN(C(=O)c2ccc(Cn4cc(Br)cn4)o2)CC3)C1 [Compound 140]', 'PARK7 (Homo sapiens, UniProt Q99497)', -1),
  ('COc1ccccc1-c1cc(C(=O)N2CCc3nc(NC(=O)[C@@H]4CCN(C#N)C4)sc3C2)n[nH]1 [Compound 293]', 'PARK7 (Homo sapiens, UniProt Q99497)', -1),
  ('N#CN1CC[C@@H](C(=O)Nc2nc3c(s2)CN(C(=O)c2cccc(-c4ncn[nH]4)c2)CC3)C1 [Compound 131]', 'PARK7 (Homo sapiens, UniProt Q99497)', 1),
  ('N#CN1CC[C@@H](C(=O)Nc2nc3c(s2)CN(C(=O)c2cccc(-c4ncon4)c2)CC3)C1 [Compound 381]', 'PARK7 (Homo sapiens, UniProt Q99497)', 1),
  ('N#CN1CC[C@@H](C(=O)Nc2nc3c(s2)CN(C(=O)c2cccc(Oc4ccc(Cl)cc4)n2)CC3)C1 [Compound 312]', 'PARK7 (Homo sapiens, UniProt Q99497)', -1),
  ('N#CN1CC[C@@H](C(=O)Nc2nc3c(s2)CN(C(=O)c2cnn(-c4ccc(C(F)(F)F)cc4)c2)CC3)C1 [Compound 314]', 'PARK7 (Homo sapiens, UniProt Q99497)', -1),
  ('N#CN1CC[C@@H](C(=O)Nc2nc3c(s2)CN(C(=O)c2cnc(-c4cccs4)s2)CC3)C1 [Compound 108]', 'PARK7 (Homo sapiens, UniProt Q99497)', 1),
  ('CC(=O)N1CCN(S(=O)(=O)c2cccc(C(=O)N3CCc4nc(NC(=O)[C@@H]5CCN(C#N)C5)sc4C3)c2)CC1 [Compound 336]', 'PARK7 (Homo sapiens, UniProt Q99497)', 1);

###

study_system: UniProtKB Q99497
Sequence (Q99497 1-189): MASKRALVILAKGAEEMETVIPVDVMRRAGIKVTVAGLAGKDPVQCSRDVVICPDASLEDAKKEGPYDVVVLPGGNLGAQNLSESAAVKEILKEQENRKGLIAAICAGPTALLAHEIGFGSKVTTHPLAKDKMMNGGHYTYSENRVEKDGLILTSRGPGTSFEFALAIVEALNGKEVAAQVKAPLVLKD
measurement_protocol: High-throughput screen of the crude compound library, PARK7 fluorescence polarization (FP) assay with FP reagent JYQ-107
Format: biochemical
setup_conditions: 1.25 µM, crude compound library; read-out: HTS FP assay %Inhibition (1.25 µM)
measured_quantity: inhibition at 1.25 µM (%)

INSERT INTO measurements (compound, unit_spec, quantitative_result) VALUES
  ('N#CN1CC[C@@H](C(=O)Nc2nc3c(s2)CN(C(=O)Cc2cccc(OCc4cccnc4)c2)CC3)C1', '%', 83.7),
  ('N#CN1CC[C@@H](C(=O)Nc2nc3c(s2)CN(C(=O)c2cccnc2N2CCCCC2)CC3)C1', '%', 69.5),
  ('N#CN1CC[C@@H](C(=O)Nc2nc3c(s2)CN(C(=O)c2ccc(Cn4ccnn4)o2)CC3)C1', '%', 81.9),
  ('N#CN1CC[C@@H](C(=O)Nc2nc3c(s2)CN(C(=O)C2CC(=O)N(C4CCCCCC4)C2)CC3)C1 (some centres unmarked)', '%', 89.6),
  ('N#CN1CC[C@@H](C(=O)Nc2nc3c(s2)CN(C(=O)c2ccc(COc4ccccc4Br)cc2)CC3)C1', '%', 67.6),
  ('COc1ccc(C(=O)N2CCc3nc(NC(=O)[C@@H]4CCN(C#N)C4)sc3C2)cc1S(=O)(=O)N1CCCCCC1', '%', 90.8),
  ('N#CN1CC[C@@H](C(=O)Nc2nc3c(s2)CN(C(=O)c2sc(N4CCCC4)nc2Cl)CC3)C1', '%', 74),
  ('N#CN1CC[C@@H](C(=O)Nc2nc3c(s2)CN(C(=O)C2CCN(S(=O)(=O)N4CCCCC4)CC2)CC3)C1', '%', 72.8),
  ('Cc1cc(C(=O)N2CCc3nc(NC(=O)[C@@H]4CCN(C#N)C4)sc3C2)c(C2CC2)s1', '%', 82.6),
  ('N#CN1CC[C@@H](C(=O)Nc2nc3c(s2)CN(C(=O)c2cnn(Cn4cc(Cl)cn4)c2)CC3)C1', '%', 80),
  ('Cc1nn(-c2ccccn2)c(C)c1CC(=O)N1CCc2nc(NC(=O)[C@@H]3CCN(C#N)C3)sc2C1', '%', 67.1),
  ('CC1CCCC(N2CC(C(=O)N3CCc4nc(NC(=O)[C@@H]5CCN(C#N)C5)sc4C3)CC2=O)C1C (some centres unmarked)', '%', 64.4),
  ('Cc1ccc(-n2c(C)ccc2C)c(C(=O)N2CCc3nc(NC(=O)[C@@H]4CCN(C#N)C4)sc3C2)c1', '%', 66.6),
  ('Cc1onc(-c2ccncc2)c1C(=O)N1CCc2nc(NC(=O)[C@@H]3CCN(C#N)C3)sc2C1', '%', 73.5),
  ('Cc1nc(-c2ccsc2)ccc1C(=O)N1CCc2nc(NC(=O)[C@@H]3CCN(C#N)C3)sc2C1', '%', 73.2),
  ('N#CN1CC[C@@H](C(=O)Nc2nc3c(s2)CN(C(=O)c2cccc(C(=O)N4CCCC4)n2)CC3)C1', '%', 81.9),
  ('N#CN1CC[C@@H](C(=O)Nc2nc3c(s2)CN(C(=O)Cc2coc(-c4ccccc4)n2)CC3)C1', '%', 78.3),
  ('Cc1ccc(N(CCC(=O)N2CCc3nc(NC(=O)[C@@H]4CCN(C#N)C4)sc3C2)S(=O)(=O)c2ccccc2)cc1', '%', 87.6),
  ('Cc1ccccc1COc1cccc(CC(=O)N2CCc3nc(NC(=O)[C@@H]4CCN(C#N)C4)sc3C2)c1', '%', 73.6),
  ('N#CN1CC[C@@H](C(=O)Nc2nc3c(s2)CN(C(=O)CC(NS(=O)(=O)c2ccccc2)c2ccc(Cl)cc2)CC3)C1 (some centres unmarked)', '%', 80.8),
  ('N#CN1CC[C@@H](C(=O)Nc2nc3c(s2)CN(C(=O)c2cc(-c4ccc(Br)cc4)ns2)CC3)C1', '%', 80.2),
  ('N#CN1CC[C@@H](C(=O)Nc2nc3c(s2)CN(C(=O)c2ccnc(C4CC4)n2)CC3)C1', '%', 67.7),
  ('N#CN1CC[C@@H](C(=O)Nc2nc3c(s2)CN(C(=O)c2csc(C4CC4)n2)CC3)C1', '%', 92.4),
  ('CN1CCN(c2ccccc2C(=O)N2CCc3nc(NC(=O)[C@@H]4CCN(C#N)C4)sc3C2)CC1', '%', 51.2),
  ('Cc1onc(C(=O)N2CCc3nc(NC(=O)[C@@H]4CCN(C#N)C4)sc3C2)c1CN1CCOCC1', '%', 62.3),
  ('Cc1ccc(NS(=O)(=O)c2cccc(C(=O)N3CCc4nc(NC(=O)[C@@H]5CCN(C#N)C5)sc4C3)c2)cc1', '%', 83.8),
  ('N#CN1CC[C@@H](C(=O)Nc2nc3c(s2)CN(C(=O)c2cnn(CCN4CCCC4)c2)CC3)C1', '%', 70.1),
  ('N#CN1CC[C@@H](C(=O)Nc2nc3c(s2)CN(C(=O)c2cccc(Cn4ccnc4)c2)CC3)C1', '%', 91.5),
  ('N#CN1CC[C@@H](C(=O)Nc2nc3c(s2)CN(C(=O)c2ccc(-c4cnco4)cc2)CC3)C1', '%', 77.5);

###

study_system: PARK7 (Homo sapiens)
measurement_protocol: Hit validation and pure-compound testing in the PARK7 FP assay with JYQ-107
Format: biochemical
setup_conditions: pure compounds, 1 µM
Values of inhibition at 1 µM greater than or equal to 90% map to met; values below map to not met.

INSERT INTO assay_data (compound, class_label) VALUES
  ('N#CN1CC[C@@H](C(=O)Nc2nc3c(s2)CN(C(=O)c2cnc(-c4cccs4)s2)CC3)C1 [Compound 108]', 'met'),
  ('N#CN1CC[C@@H](C(=O)Nc2nc3c(s2)CN(C(=O)c2cccc(S(=O)(=O)NC4CC4)c2)CC3)C1 [Compound 59]', 'met'),
  ('CN1CCN(CC(=O)N2CCc3nc(NC(=O)[C@@H]4CCN(C#N)C4)sc3C2)CC1 [Compound 2]', 'not met'),
  ('CC(=O)N1CCN(S(=O)(=O)c2cccc(C(=O)N3CCc4nc(NC(=O)[C@@H]5CCN(C#N)C5)sc4C3)c2)CC1 [Compound 336]', 'met'),
  ('N#CN1CC[C@@H](C(=O)Nc2nc3c(s2)CN(C(=O)CC2CCNCC2)CC3)C1 [Compound 5]', 'not met');
